Reference source for all entries: ChEMBL document CHEMBL1127031

- assayed system: Delta-type opioid receptor (Rattus norvegicus, UniProt P33533)
- Sequence (P33533 whole entry): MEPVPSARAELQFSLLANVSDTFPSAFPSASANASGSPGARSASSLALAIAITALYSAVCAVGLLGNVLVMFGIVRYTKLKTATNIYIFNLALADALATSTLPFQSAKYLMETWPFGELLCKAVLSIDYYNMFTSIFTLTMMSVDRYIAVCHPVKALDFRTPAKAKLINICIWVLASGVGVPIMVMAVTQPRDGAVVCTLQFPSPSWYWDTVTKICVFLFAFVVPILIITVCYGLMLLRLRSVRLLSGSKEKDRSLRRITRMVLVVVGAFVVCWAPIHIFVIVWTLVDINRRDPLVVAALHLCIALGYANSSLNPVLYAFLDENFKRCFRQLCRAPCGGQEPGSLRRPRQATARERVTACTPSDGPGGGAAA
- assay comment: The binding affinity was measured on delta-opiate receptor using [3H]- dadle as radioligand.
measurement label: Ki

[
  {
    "compound": "Cc1nccn1C[C@H]1CCc2c(c3cccc4c3n2CCC4)C1=O [CILANSETRON]",
    "Ki": "> 10 µM"
  }
]

With Delta-type opioid receptor (Rattus norvegicus, UniProt P33533) as the test system, Cc1nccn1CC1CCc2c(c3ccccc3n2C)C1=O (configuration not stated) [ONDANSETRON] showed Ki of > 10 µM

* * *

- assayed system: Thyrotropin-releasing hormone receptor (Rattus norvegicus, UniProt Q01717)
- Sequence (Q01717 whole entry): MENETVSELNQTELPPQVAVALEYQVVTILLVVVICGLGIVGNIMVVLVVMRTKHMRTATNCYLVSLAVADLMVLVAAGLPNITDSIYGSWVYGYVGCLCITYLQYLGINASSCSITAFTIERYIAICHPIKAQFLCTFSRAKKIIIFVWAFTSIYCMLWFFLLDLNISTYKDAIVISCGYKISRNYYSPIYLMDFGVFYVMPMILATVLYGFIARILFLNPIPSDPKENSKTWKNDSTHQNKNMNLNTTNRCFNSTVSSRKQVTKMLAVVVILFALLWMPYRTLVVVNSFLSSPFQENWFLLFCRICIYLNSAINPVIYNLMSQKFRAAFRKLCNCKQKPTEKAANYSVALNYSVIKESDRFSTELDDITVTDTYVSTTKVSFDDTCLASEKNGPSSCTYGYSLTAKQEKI
pKi: −log10 of the molar value.
measurement label: pKi

[
  {
    "molecule": "Cc1nccn1CC1CCc2c(c3ccccc3n2C)C1=O (configuration not stated) [ONDANSETRON]",
    "pKi": "< 5.00"
  }
]

Proceeding to the next molecule to report its pKi.
Record Cc1nccn1C[C@H]1CCc2c(c3cccc4c3n2CCC4)C1=O [CILANSETRON] , field pKi: < 5.00

* * *

Listed here: compounds with reported pKi for Muscarinic acetylcholine receptor M3 (Rattus norvegicus, UniProt P08483).
pKi: −log10 of the molar value.

[
  {
    "compound": "Cc1nccn1CC1CCc2c(c3ccccc3n2C)C1=O (configuration not stated) [ONDANSETRON]",
    "pKi": "< 5.00"
  }
]

Note: attention shifts to another entry.
# value of pKi, Muscarinic acetylcholine receptor M3 (Rattus norvegicus, UniProt P08483), item Cc1nccn1C[C@H]1CCc2c(c3cccc4c3n2CCC4)C1=O [CILANSETRON] = < 5.00

* * *

Overview of recorded Ki for various compounds
- assayed system: Histamine H3 receptor (Rattus norvegicus, UniProt Q9QYN8)
- Sequence (Q9QYN8 whole entry): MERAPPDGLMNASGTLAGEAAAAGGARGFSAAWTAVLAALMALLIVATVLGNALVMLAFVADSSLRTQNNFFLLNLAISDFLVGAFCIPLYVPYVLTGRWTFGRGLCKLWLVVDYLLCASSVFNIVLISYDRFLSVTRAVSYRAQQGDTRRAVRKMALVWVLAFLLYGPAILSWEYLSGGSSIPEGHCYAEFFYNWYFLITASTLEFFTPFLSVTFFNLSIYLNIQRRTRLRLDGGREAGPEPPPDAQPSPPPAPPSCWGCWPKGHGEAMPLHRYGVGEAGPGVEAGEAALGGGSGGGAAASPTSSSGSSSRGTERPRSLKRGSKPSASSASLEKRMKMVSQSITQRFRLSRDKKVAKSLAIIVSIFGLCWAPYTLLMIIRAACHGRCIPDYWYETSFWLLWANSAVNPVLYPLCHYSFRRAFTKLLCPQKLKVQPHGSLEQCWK

[
  {
    "compound": "Cc1nccn1CC1CCc2c(c3ccccc3n2C)C1=O (configuration not stated) [ONDANSETRON]",
    "Ki": "> 10 µM"
  }
]

Lab note: next compound to report on.
Cc1nccn1C[C@H]1CCc2c(c3cccc4c3n2CCC4)C1=O [CILANSETRON] on Histamine H3 receptor (Rattus norvegicus, UniProt Q9QYN8) gives Ki = > 10 µM

* * *

- assay comment: The binding affinity was measured on Na+2(BTX)brain receptor using [3H]- batrachotox as radioligand.
- Parameters: species or system Rattus norvegicus
pKi: −log10 of the molar value.
Readings of pKi for the listed compounds

[
  {
    "compound": "Cc1nccn1C[C@H]1CCc2c(c3cccc4c3n2CCC4)C1=O",
    "pKi": "< 5.00"
  }
]

Next compound, please.
So, Cc1nccn1CC1CCc2c(c3ccccc3n2C)C1=O (configuration not stated) ? Its pKi was < 5.00

* * *

- assayed system: Sigma non-opioid intracellular receptor 1 (Rattus norvegicus)
- Sequence (Q9R0C9 whole entry): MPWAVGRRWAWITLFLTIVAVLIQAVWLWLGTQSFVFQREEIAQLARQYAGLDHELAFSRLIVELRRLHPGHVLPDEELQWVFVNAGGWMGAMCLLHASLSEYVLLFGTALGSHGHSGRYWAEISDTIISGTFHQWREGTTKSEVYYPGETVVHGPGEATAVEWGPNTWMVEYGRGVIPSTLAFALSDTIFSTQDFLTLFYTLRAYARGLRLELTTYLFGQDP
- assay comment: The binding affinity was measured on sigma receptor using [3H]- (+)-3-PPP as radioligand.
pKi values, listed per item
As a rule, pKi stands for the negative log10 of the concentration, concentration in M.

[
  {
    "molecule": "Cc1nccn1C[C@H]1CCc2c(c3cccc4c3n2CCC4)C1=O [CILANSETRON]",
    "pKi": 6.47
  }
]

Consider Cc1nccn1CC1CCc2c(c3ccccc3n2C)C1=O (configuration not stated) [ONDANSETRON] . Its measured pKi is 6.17

* * *

- assayed system: Interleukin-6 receptor subunit alpha (Rattus norvegicus)
- Sequence (P22273 whole entry): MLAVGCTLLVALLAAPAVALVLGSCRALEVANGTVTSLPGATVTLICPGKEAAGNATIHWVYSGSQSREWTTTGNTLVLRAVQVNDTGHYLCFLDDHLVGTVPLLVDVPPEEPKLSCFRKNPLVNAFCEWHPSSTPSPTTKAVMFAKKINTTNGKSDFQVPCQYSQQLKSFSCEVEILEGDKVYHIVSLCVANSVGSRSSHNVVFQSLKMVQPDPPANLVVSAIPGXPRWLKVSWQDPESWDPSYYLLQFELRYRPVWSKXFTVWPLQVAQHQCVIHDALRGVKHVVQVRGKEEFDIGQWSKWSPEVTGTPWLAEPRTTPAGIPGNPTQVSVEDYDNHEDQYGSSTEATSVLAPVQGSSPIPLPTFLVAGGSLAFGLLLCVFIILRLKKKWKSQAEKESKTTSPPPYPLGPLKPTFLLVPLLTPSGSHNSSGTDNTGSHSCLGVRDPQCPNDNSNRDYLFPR
- assay comment: The binding affinity was measured on […] receptor using [3H]- IL-6 as radioligand.
pKi: −log10 of the molar value.
Let's look at some molecules and their measured pKi.

Just so you know, measured pKi for `Cc1nccn1C[C@H]1CCc2c(c3cccc4c3n2CCC4)C1=O` came out at < 5.00

Just so you know, measured pKi for Cc1nccn1CC1CCc2c(c3ccccc3n2C)C1=O (configuration not stated) came out at < 5.00

* * *

- assayed system: Alpha-2A adrenergic receptor (Rattus norvegicus, UniProt P22909)
- Sequence (P22909 whole entry): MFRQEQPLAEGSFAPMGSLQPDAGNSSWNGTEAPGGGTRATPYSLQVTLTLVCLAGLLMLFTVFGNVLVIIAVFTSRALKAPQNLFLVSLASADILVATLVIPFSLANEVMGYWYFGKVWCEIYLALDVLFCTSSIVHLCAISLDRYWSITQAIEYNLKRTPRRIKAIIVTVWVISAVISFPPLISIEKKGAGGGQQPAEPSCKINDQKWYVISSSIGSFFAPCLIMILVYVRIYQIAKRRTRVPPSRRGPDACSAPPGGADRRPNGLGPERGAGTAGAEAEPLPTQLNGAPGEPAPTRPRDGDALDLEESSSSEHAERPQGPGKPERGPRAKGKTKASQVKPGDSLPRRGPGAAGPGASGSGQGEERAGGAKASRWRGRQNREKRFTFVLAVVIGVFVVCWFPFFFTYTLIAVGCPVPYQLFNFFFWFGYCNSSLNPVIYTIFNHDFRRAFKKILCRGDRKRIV
measurement label: Ki

Summary: Cc1nccn1C[C@H]1CCc2c(c3cccc4c3n2CCC4)C1=O [CILANSETRON] , Alpha-2A adrenergic receptor (Rattus norvegicus, UniProt P22909), Ki = > 10 µM

* * *

- assayed system: Serotonin 3 (5-HT3) receptor (Rattus norvegicus, UniProt P35563+Q9JJ16)
- Sequence (P35563 whole entry): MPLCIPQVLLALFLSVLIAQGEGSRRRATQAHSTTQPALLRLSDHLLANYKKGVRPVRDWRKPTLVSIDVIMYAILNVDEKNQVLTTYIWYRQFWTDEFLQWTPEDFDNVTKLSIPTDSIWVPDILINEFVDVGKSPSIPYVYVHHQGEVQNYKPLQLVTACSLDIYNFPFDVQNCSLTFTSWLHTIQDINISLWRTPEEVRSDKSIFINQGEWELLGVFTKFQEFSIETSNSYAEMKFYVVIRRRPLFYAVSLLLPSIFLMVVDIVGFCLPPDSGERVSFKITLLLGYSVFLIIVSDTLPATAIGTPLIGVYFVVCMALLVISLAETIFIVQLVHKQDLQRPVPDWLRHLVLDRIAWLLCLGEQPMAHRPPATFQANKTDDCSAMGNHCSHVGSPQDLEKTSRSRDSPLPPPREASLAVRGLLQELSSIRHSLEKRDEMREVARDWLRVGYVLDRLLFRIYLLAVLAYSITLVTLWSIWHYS
- Sequence (Q9JJ16 whole entry): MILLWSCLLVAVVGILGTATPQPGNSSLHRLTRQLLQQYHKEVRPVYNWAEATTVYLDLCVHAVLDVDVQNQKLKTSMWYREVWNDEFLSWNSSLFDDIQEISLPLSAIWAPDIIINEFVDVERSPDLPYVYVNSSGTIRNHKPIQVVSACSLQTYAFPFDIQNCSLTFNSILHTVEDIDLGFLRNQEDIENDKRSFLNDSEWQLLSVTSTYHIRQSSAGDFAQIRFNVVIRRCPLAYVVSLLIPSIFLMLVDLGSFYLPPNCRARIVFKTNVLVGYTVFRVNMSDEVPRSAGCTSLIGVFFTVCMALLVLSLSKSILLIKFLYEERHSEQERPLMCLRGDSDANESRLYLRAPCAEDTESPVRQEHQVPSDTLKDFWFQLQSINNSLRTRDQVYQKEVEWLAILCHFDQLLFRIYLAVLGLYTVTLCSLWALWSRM
- assay comment: Displacement of [3H]GR-65630 binding to 5-hydroxytryptamine 3 receptor in rat brain cortical membranes
Listing: pKi of selected molecules
Answer as the number alone; pKi is minus log10 of concentration in mol/L.

Examples from the recorded data:
[
  {
    "molecule": "Cc1nccn1CC1CCc2c(c3cccc4c3n2CCO4)C1=O (racemic)",
    "pKi": 8.89
  },
  {
    "molecule": "Cc1[nH]cnc1CCC(=O)c1cn2c3c(cccc13)CCCC2",
    "pKi": 9.48
  }
]

The molecule identified as `Cc1[nH]cnc1CCC(=O)c1cn(C)c2ccccc12` registered its pKi at 9.55

The recorded pKi for Cc1nccn1CC1CCc2c(c3cccc4c3n2CCS4)C1=O (racemic) is 9.11

Per the record, Cc1nccn1CC1CCc2c(c3cccc4c3n2CCCC4)C1=O (racemic) has pKi of 9.12

Consider `Cc1nc[nH]c1CCC(=O)c1cn2c3c(cccc13)SCC2` . Its measured pKi is 9.72

pKi reported for this molecule Cc1nccn1CC1CCc2c(c3cccc4c3n2CCCC4)C1=O (single isomer, unassigned; (+)) : 9.03

// `Cc1[nH]cnc1CCC(=O)c1cn2c3c(cccc13)CCC2` : pKi value = 10.12

Sample Cc1nccn1CC1CCc2c(c3cccc4c3n2CCCC4)C1=O (single isomer, unassigned; (-)) ; pKi observed: 9.19

Entry Cc1nccn1CC1CCc2c(c3cccc4c3n2CC4)C1=O (racemic) — recorded pKi = 9.64

Measured pKi, Cc1nccn1CC1CCc2c(c3cccc4c3n2CCCCC4)C1=O (racemic) : 8.96

* * *

- assayed system: Mu-type opioid receptor (Rattus norvegicus, UniProt P33535)
- Sequence (P33535 whole entry): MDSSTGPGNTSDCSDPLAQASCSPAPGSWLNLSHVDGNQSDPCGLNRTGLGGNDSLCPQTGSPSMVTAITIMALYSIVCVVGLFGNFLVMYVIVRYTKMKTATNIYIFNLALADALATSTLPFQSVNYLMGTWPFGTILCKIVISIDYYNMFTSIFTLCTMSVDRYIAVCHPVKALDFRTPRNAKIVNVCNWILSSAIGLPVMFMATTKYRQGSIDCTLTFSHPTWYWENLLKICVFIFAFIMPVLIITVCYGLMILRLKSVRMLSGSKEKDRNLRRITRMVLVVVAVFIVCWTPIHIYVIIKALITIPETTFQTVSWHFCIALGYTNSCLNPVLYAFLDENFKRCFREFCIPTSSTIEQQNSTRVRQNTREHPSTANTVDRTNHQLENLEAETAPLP
measurement label: Ki (µM)
Value expressed in µM; do not type the unit.

Form: compound = `Cc1nccn1C[C@H]1CCc2c(c3cccc4c3n2CCC4)C1=O` ; Ki = 8.5

* * *

- assayed system: Kappa-type opioid receptor (Rattus norvegicus, UniProt P34975)
- Sequence (P34975 whole entry): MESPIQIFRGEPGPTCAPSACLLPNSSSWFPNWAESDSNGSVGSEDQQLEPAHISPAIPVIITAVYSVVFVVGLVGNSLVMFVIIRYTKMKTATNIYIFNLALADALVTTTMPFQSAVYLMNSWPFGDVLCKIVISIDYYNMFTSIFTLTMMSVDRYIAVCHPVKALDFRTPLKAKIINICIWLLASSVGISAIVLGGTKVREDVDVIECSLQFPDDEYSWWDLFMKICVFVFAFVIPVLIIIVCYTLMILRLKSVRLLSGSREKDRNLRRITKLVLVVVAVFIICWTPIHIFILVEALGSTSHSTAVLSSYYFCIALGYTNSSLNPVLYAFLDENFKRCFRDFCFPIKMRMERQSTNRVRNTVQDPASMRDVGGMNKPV
pKi: −log10 of the molar value.
measurement label: pKi

Response field pKi (Kappa-type opioid receptor (Rattus norvegicus, UniProt P34975)) for item Cc1nccn1C[C@H]1CCc2c(c3cccc4c3n2CCC4)C1=O [CILANSETRON] : < 5.00

* * *

- assayed system: GABA-A receptor; anion channel
- assay comment: Displacement of [3H]DH-muscimol from rat GABA-A receptor
- Format: protein-complex assay
pKi: −log10 of the molar value.
pKi values for the compounds below.

[
  {
    "compound": "Cc1nccn1C[C@H]1CCc2c(c3cccc4c3n2CCC4)C1=O",
    "pKi": "< 5.00"
  }
]

// next entry
# pKi measured on GABA-A receptor; anion channel for item Cc1nccn1CC1CCc2c(c3ccccc3n2C)C1=O (configuration not stated) = < 5.00
